Tested on: DMS-114
Assay: NCI tumour cell line growth inhibition, 48 h
Activity calls are given as the source filed them. Cut-off read from the data, not from the text of the source: active = GI50 up to about 1.1 µM and inactive = higher.
attributeMeasured: GI50

* CC1C=C(OC(=O)c2ccccc2)C(=O)C(n2cc(F)c(=O)n(C(=O)c3ccccc3)c2=O)O1 (configuration not stated) | 42.1 µM (inactive)
* COC(OC)c1cccc2c1C(=O)CCC1(O)c3ccccc3C1C2 (configuration not stated) | 39.1 µM (inactive)
* CC1CC(c2ccc([N+](=O)[O-])cc2)=Nc2ccccc2S1 (configuration not stated) | 17.4 µM (inactive)
* NC(CCc1ncc(C(=O)O)s1)C(=O)O (configuration not stated) | > 100 µM (inactive)
* CON1C(=O)C2(CCCCC2)C(=O)C12C=CC(C)CC2 (configuration not stated) | 46.7 µM (inactive)
* COc1cccc(-c2nccc3c(OCc4ccccc4)c(OC)c(OC)cc23)c1 | 35.6 µM (inactive)
* O=C(O)C1Cc2[nH]c3ccccc3c2C2CCCC12 (configuration not stated) | > 100 µM (inactive)
* CCOC(=O)CSc1cc[nH]c(=O)n1 | > 100 µM (inactive)
* c1cc2c(cnc3cscc32)s1 | > 100 µM (inactive)
* COC(=O)N(C(=O)OC)C(C(=O)O)C(C)C (configuration not stated) | > 100 µM (inactive)
* Oc1cc(-c2c[nH]c3ccccc23)nc2cc3c(cc12)OCO3 | > 100 µM (inactive)
* CS(=O)(=O)NNS(=O)(=O)c1cccc([N+](=O)[O-])c1 | > 100 µM (inactive)

====

System: T47D
Test: NCI tumour cell line growth inhibition, 48 h
The source made the active and inactive calls. Cut-off read from the data, not from the text of the source: active = GI50 up to about 1.1 µM and inactive = higher.
attributeMeasured: GI50

* C=C(CC[C@@H](C(=O)O)[C@H]1[C@H](O)C[C@@]2(C)C3=CC[C@@H](C(=C)C)[C@](C)(CCC(=O)O)C3=CC[C@]12C)C(C)C | 23.8 µM (inactive)
* C=CCOC1=C(OC(C)=O)C(C2COC(C)(C)O2)OC1=O (stereo not given) | 18.5 µM (inactive)
* ClC1=C(Cc2ccccc2)Cc2ccc3c(c21)CCC3 | 18.5 µM (inactive)
* CCOC1=NC(C(F)(F)F)(C(F)(F)F)N=C(N2CCOCC2)O1 | 27 µM (inactive)
* O=C(O)c1cc2cc(OCc3ccccc3)ccc2[nH]1 | > 100 µM (inactive)
* CCCCn1c(C)c(C(=O)CC)c(C(=O)NCCN2CCN(c3ccccc3Cl)CC2)c1C | 21.8 µM (inactive)
* OCC1OC(n2nc(-c3ccccc3)nc2-c2cnccn2)C(O)C(O)C1O (stereo not given) | > 100 µM (inactive)
* O=C1NN=C2C=C(c3ccc(Cl)cc3)CC(c3cccc(Cl)c3)C12 (stereo not given) | 60.7 µM (inactive)
* Cc1ccccc1C1CC(=O)CC(c2ccccc2C)C12C(=O)NC(=O)NC2=O (stereo not given) | > 100 µM (inactive)
* Cn1c(=O)c2c(ncn2CCSS(=O)(=O)O)n(C)c1=O | > 100 µM (inactive)
* Cc1cc2nc3c(N)nn(CCN(C)C)c3nc2cc1C | 42.3 µM (inactive)
* O=C(Nc1ccc2c(c1)oc(=O)c1ccccc12)C(Cl)Cl | > 100 µM (inactive)
* Cc1cc(O)c(C(C)C)cc1C(=S)Nc1ccc(Cl)cc1 | 11.6 µM (inactive)
* Cn1cc(NC(=O)Nc2cc(C(=O)Nc3cc(C(=O)Nc4ccc5cc(S(=O)(=O)O)cc(S(=O)(=O)O)c5c4)n(C)c3)n(C)c2)cc1C(=O)Nc1cc(C(=O)Nc2ccc3cc(S(=O)(=O)O)cc(S(=O)(=O)O)c3c2)n(C)c1 | > 100 µM (inactive)
* CCSc1c2cc(OC)ccc2nc2ccc(OC)cc12 | 8.87 µM (inactive)
* C=C1C(=O)OC2/C=C(/C)C3(O)OC(C)(CC(OC(=O)C(C)C)C12)CC3OC(C)=O (stereo not given) | 13 µM (inactive)
* O=[N+]([O-])C(/C=C(\Cl)[N+](=O)[O-])=C(N1CCOCC1)N1CCOCC1 | 24.5 µM (inactive)
* Cn1c(O)c(C2=Nc3ccccc3C2=O)c2ccccc21 | > 100 µM (inactive)
* O=c1[nH]nc(Cc2ccccc2)[nH]1 | > 100 µM (inactive)
* Cn1c2c(c3ccccc31)CC(=O)N1CCCC(C1)CC21OCCO1 (stereo not given) | > 100 µM (inactive)

Source of measurements: ChEMBL document CHEMBL1201862
